- studySystem: CDK9/CyclinT1 (Homo sapiens (Human))
- Sequence (P50750 whole entry): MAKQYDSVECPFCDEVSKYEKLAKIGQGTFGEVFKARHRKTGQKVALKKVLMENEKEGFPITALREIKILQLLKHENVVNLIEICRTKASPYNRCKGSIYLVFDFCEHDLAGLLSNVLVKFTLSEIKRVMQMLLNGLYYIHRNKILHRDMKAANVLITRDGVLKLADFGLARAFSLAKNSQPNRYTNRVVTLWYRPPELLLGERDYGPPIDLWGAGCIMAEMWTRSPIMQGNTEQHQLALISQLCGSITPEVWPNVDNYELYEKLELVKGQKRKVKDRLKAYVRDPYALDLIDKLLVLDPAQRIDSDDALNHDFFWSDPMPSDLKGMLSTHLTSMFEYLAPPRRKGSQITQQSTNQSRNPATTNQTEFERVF
- Sequence (O60563 whole entry partner): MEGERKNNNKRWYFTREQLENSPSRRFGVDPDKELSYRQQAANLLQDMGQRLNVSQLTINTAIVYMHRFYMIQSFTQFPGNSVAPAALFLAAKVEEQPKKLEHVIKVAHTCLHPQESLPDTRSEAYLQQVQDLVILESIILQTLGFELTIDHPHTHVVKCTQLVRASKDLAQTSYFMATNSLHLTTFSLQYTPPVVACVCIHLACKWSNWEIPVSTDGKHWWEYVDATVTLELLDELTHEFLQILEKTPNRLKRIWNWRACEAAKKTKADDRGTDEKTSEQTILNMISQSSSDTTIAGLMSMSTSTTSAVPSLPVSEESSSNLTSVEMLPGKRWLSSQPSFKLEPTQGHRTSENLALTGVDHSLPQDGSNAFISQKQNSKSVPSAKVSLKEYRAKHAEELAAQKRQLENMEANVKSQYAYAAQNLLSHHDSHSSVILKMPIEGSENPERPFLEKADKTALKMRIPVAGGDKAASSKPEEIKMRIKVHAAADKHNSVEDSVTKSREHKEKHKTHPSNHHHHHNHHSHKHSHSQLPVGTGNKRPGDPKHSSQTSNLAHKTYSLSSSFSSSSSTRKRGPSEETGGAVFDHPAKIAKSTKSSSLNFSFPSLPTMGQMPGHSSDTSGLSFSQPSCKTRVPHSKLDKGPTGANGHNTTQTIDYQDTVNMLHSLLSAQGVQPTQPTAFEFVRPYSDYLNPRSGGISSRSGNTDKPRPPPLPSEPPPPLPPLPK
- procedureDetails: CDK9/CyclinT1 kinase inhibitory activity (Caliper mobility shift)
- recordedConditions: read-out: CDK9/Cyclin T1 IC50
measuredAttribute: IC50

{"molecule": "N#Cc1cnc(Nc2ccc(S(=O)(=O)NC3CC(F)C3)cc2)nc1OC1CCCCC1O (single isomer, unassigned) [Example 31a]", "studySystem": "CDK9/CyclinT1 (Homo sapiens (Human))", "reading": "0.1 to 1 µM"}
{"molecule": "N#Cc1cnc(Nc2ccc(S(N)(=O)=O)cc2)nc1OCC1CCCC1O (single isomer, unassigned) [Example 19a]", "studySystem": "CDK9/CyclinT1 (Homo sapiens (Human))", "reading": "0.1 to 1 µM"}

Task: Give the measured IC50 for "CS(=O)(=O)N1CCC(Nc2ncc(C(F)(F)F)c(OC3CCC3)n2)CC1"
Result: 0.1 to 1 µM

###

- studySystem: CDK1/CyclinB (Homo sapiens (Human))
- Sequence (P06493 whole entry): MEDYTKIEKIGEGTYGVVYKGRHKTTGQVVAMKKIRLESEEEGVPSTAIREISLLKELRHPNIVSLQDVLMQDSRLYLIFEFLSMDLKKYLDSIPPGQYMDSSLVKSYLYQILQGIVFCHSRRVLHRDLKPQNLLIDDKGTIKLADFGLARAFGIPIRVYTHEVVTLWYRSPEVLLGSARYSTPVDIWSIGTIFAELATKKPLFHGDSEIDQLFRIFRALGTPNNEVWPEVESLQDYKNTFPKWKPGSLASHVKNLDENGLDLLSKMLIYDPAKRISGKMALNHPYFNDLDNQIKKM
- Sequence (P14635 whole entry partner): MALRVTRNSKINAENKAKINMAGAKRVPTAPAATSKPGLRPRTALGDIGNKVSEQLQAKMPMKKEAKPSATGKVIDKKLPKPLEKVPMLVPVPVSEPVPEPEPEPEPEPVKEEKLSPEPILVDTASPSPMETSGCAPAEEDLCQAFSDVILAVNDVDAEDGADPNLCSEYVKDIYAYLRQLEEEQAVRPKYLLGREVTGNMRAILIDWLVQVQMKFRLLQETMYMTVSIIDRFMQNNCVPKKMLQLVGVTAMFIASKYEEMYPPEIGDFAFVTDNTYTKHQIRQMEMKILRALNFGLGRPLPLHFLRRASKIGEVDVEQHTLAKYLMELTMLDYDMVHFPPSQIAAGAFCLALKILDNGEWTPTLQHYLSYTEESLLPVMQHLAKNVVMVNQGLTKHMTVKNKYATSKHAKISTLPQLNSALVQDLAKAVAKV
- procedureDetails: CDK1/CyclinB kinase inhibitory activity (Caliper mobility shift)
- recordedConditions: read-out: CDK1/Cyclin B1 IC50
pIC50: −log10 of the molar value.
measuredAttribute: pIC50

{"compound": "[2H]C([2H])([2H])NS(=O)(=O)c1ccc(Nc2ncc(CC)c(OC3CCOCC3O)n2)cc1 (single isomer, unassigned) [Example 151b]", "reading": "≤ 6.00"}

Task: Quote pIC50 reported for "N#Cc1cnc(Nc2ccc(S(N)(=O)=O)cc2)nc1N1CCC[C@@H](O)C1" please.
Result: 6.00 to 7.00

Task: Let me know recorded pIC50 for CCS(=O)(=O)N1CCC(Nc2ncc(C#N)c(OC3CCCC3(C)O)n2)CC1 (single isomer, unassigned) [Example 36b] , thanks.
Result: 7.00 to 8.00

Task: Return value of pIC50 for input [2H]C([2H])([2H])NS(=O)(=O)c1ccc(Nc2ncc(Br)c(OC3CCCC3O)n2)cc1 (single isomer, unassigned) [Example 143b] , no commentary.
Result: 6.00 to 7.00

Task: # return recorded pIC50 for input "Cc1cccc(-c2nc(Nc3ccc(S(N)(=O)=O)cc3)ncc2C#N)c1"
Result: 7.00 to 8.00

Task: # return recorded pIC50 for entry CNS(=O)(=O)c1ccc(Nc2ncc(C(F)(F)F)c(OC3CCOCC3O)n2)cc1 (single isomer, unassigned) [Example 116a]
Result: 7.00 to 8.00

Task: Dear colleague, please send me the reported pIC50 for "N#Cc1cnc(Nc2ccc(S(N)(=O)=O)cc2)nc1N1CCCCC1" when you can.
Result: 7.00 to 8.00

Task: For the compound NS(=O)(=O)c1ccc(Nc2ncc(C(F)(F)F)c(OC3CCOCC3O)n2)cc1 (single isomer, unassigned) [Example 114b] , give its reported pIC50.
Result: 6.00 to 7.00

Task: For the compound "N#Cc1cnc(Nc2ccc(S(=O)(=O)NC3COC3)cc2)nc1N1CCCCC1" , give its reported pIC50.
Result: 7.00 to 8.00

Task: Supply measured pIC50 of CC1(O)CCCC1Oc1nc(NC2CCN(S(=O)(=O)CC3CCOC3)CC2)ncc1C#N (single isomer, unassigned) [Example 40a] in your reply.
Result: 7.00 to 8.00

Task: Using known records, supply pIC50 for "C[C@@H]1C[C@@H](O)CCN1c1nc(Nc2ccc(S(N)(=O)=O)cc2)ncc1C#N"
Result: 6.00 to 7.00

Task: Query pIC50 for "C[C@@H]1CCCCN1c1nc(Nc2ccc(S(N)(=O)=O)cc2)ncc1F"
Result: 7.00 to 8.00

Task: Please indicate pIC50 recorded for NS(=O)(=O)c1ccc(Nc2ncc(C(F)(F)F)c(OC3CCCCC3O)n2)cc1 (single isomer, unassigned) [Example 111b]
Result: > 8.00

Task: Look up and report measured pIC50 for this entry: CC1(O)CCCCC1Oc1nc(Nc2ccc(S(N)(=O)=O)cc2)ncc1C#N (single isomer, unassigned) [Example 24b]
Result: 7.00 to 8.00

Task: Supply pIC50 value. Item: CC1(O)CCCC1Oc1nc(Nc2ccc(S(N)(=O)=O)cc2)ncc1C#N (single isomer, unassigned) [Example 23b]
Result: 6.00 to 7.00

Task: Kindly indicate its recorded pIC50. Item: C[C@]1(O)CCC[C@H]1Oc1nc(NC2CCN(S(C)(=O)=O)CC2)ncc1C#N (relative stereo) [Example 5a]
Result: 7.00 to 8.00

Task: Give a short answer stating reported pIC50 for CC1(O)CCCC1Oc1nc(NC2CCN(S(=O)(=O)CF)CC2)ncc1C#N (single isomer, unassigned) [Example 37b] .
Result: 6.00 to 7.00
